Target under test: human a-thrombin (Homo sapiens)
Construct: human a-thrombin
Run description: In vitro assay for determining proteinase inhibition (thrombin Ki)
Format: biochemical
Experimental conditions: Table 3; 25° C., pH 7.4; read-out: Ki(th)
Counter-ions that a name gives are not always drawn.
Note that class boundaries on Ki are zone 1 (below 800 nM), zone 2 (800 nM to below 2000 nM), zone 3 (2000 nM or more)

1. CCCc1cc(CNc2ccncc2)cc(CO)c1OCC1CCCCC1 :: zone 3
2. c1ccc(-c2cc(OCC3CCCCC3)ccc2CNc2ccncc2)cc1 :: zone 3
3. c1ccc(Cc2cc(OCC3CCCCC3)ccc2CNc2ccncc2)cc1 :: zone 2
4. CCCc1cc(CNc2ccncc2)ccc1OCC1CCCCCC1 :: zone 1
5. CCCc1cc(CNc2ccncc2)ccc1OC(c1ccccc1)c1ccccc1 :: zone 1
6. COc1cc(OCC2CCCCC2)ccc1CNc1ccncc1 :: zone 3
7. CC(C)Cc1cc(CNc2ccncc2)ccc1OCC1CCCCC1 :: zone 2
8. CCCc1cc(CNc2ccncc2)ccc1OC(Cc1ccccc1)C1CC1 (centres unmarked) :: zone 2
9. CCCc1cc(CNc2ccncc2)ccc1OCc1ccccc1 :: zone 2
10. CC(C)CCc1cc(CNc2ccncc2)ccc1OCC1CCCCC1 [drawing 160] :: zone 3
11. C=Cc1cc(CNc2ccncc2)ccc1OCC1CCCCC1 :: zone 1
12. CCCc1cc(CNc2ccncc2)ccc1OCC12CC3CC(CC(C3)C1)C2 :: zone 1
13. CCCc1cc(CNc2ccncc2)ccc1OCC1CCCCC1 :: zone 1
14. Nc1cc(CNc2ccncc2)ccc1OCC1CCCCC1 [dihydrochloride] :: zone 3
15. CCCc1cc(CNc2ccncc2)ccc1OCc1ccc(OC)cc1 :: zone 2
16. c1cc(NCc2ccc(OCC3CCCCC3)c(C3CC3)c2)ccn1 :: zone 3
17. Oc1cc(OCC2CCCCC2)ccc1CNc1ccncc1 :: zone 2
18. CCc1cc(CNc2ccncc2)ccc1OCC1CCCCC1 :: zone 1
19. OCCc1cc(CNc2ccncc2)ccc1OCC1CCCCC1 :: zone 3
20. CCCc1cc(CNc2ccncc2)ccc1OC(Cc1ccccc1)C(C)C (centres unmarked) :: zone 1
21. c1ccc(COc2cc(OCC3CCCCC3)ccc2CNc2ccncc2)cc1 :: zone 2
